Test system: RSV
Assay details: microbe, parasite or virus in culture
Type: cell-based, Human Respiratory Syncytial Virus (RSV) strain A2
Measurement conditions: human respiratory syncytial virus, Vero 76, read-out: EC50 RSV
Here, each record is paired with measured pEC50 data.
Keep it numeric: pEC50 is minus log10 of the concentration in mol/L.

[ask] Which pEC50 is listed for O=C(Nc1ccc(-n2nc3cc(Cl)c(Cl)cc3n2)cc1)NC1CCCCC1 [10d] ?
[reply] 5.70

[ask] Subsequent entry: "O=C(Nc1ccc(-n2nnc3cc(Cl)c(Cl)cc32)cc1)c1ccccc1"
[reply] 4.22

[ask] Subsequent entry: "O=C(Nc1ccc(-n2nnc3cc(Cl)c(Cl)cc32)cc1)c1ccc(Cl)cc1"
[reply] 5.10

[ask] Subsequent entry: "CC(=O)N(C(C)=O)c1ccc(-n2nc3cc(Cl)c(Cl)cc3n2)cc1"
[reply] 4.40

[ask] Subsequent entry: "O=C(Nc1ccc(-n2nc3cc(Cl)c(Cl)cc3n2)cc1)c1ccc([N+](=O)[O-])cc1"
[reply] 4.48

Origin of measurements: paper PMC6476926
